# target.system: HSP90 (Plasmodium falciparum 3D7, UniProt Q8IL32)
# Sequence (Q8IL32 whole entry): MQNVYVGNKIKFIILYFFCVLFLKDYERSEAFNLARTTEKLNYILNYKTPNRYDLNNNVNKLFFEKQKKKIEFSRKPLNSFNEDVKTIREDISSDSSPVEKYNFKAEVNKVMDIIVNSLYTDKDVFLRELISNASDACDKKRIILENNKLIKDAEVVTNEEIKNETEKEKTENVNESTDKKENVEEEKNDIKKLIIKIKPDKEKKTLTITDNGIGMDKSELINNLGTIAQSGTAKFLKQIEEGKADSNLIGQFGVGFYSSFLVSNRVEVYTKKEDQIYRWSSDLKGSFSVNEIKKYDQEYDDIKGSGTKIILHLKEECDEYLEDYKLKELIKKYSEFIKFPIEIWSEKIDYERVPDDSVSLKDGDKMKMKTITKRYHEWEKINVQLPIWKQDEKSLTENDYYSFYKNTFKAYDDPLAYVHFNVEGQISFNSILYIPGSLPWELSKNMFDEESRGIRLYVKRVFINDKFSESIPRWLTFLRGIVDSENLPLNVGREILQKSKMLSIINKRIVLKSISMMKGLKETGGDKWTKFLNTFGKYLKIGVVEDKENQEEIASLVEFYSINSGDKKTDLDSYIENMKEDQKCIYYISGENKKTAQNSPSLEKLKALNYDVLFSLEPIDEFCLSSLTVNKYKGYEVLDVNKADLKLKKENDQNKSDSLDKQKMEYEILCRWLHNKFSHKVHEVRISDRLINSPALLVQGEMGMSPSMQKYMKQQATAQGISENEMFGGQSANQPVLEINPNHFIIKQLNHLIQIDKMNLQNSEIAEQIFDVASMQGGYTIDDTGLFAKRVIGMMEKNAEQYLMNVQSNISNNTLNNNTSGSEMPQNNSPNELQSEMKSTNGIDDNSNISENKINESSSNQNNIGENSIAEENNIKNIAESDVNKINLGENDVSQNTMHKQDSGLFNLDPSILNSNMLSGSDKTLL
endpoint.label: Kd
Could you kindly put the unit after your number?

// field: Kd; key: OC(CN1CCN(Cc2ccccc2)CC1)Cn1c2ccc(Cl)cc2c2cc(Cl)ccc21 (stereo unspecified) ; value = 27 nM

----------
# Test system: Plasmodium falciparum
# protocol.notes: Binding affinity to Plasmodium falciparum GRP94 nucleotide binding domain at 0.5 mM by SYPRO orange dye based DSF analysis
The source made the active and inactive calls. The calls are words filed in the database; no cut-off is given here.
A correct response names exactly one class from active, inactive

Outcome logged for Nc1ncnc2c1ncn2[C@@H]1O[C@H](COP(=O)(O)OP(=O)(O)OP(=O)(O)O)[C@@H](O)[C@H]1O in this assay:
active

Outcome logged for N#Cc1ccc(N2CCC(NCCC(O)c3ccc(F)c4ccccc34)CC2)c(C(F)(F)F)c1 (stereo in doubt; 72) in this assay:
inactive

Outcome logged for OC(CCN1CCN(c2ccccc2C(F)(F)F)CC1)c1ccc(F)c2ccccc12 (stereo in doubt; 55) in this assay:
inactive

Outcome logged for COc1ccccc1N1CCN(CCC(O)c2ccc(F)c3ccccc23)CC1 (centres undefined) in this assay:
inactive

Outcome logged for OC(CCN1CCN(C(c2ccccc2)c2ccccc2)CC1)c1ccc(F)c2ccccc12 (centres undefined) in this assay:
inactive

Outcome logged for COc1ccccc1N1CCN(CCC(O)c2ccc(F)cc2)CC1 (stereo in doubt; 66) in this assay:
inactive

Outcome logged for N#Cc1ccc(N2CCC(NCCC(O)c3ccc(F)c4ccccc34)CC2)c(Cl)c1 (centres undefined) in this assay:
inactive

Outcome logged for O=[N+]([O-])c1ccc(N2CCC(NCCC(O)c3ccc(F)c4ccccc34)CC2)c(C(F)(F)F)c1 (stereo in doubt; 8) in this assay:
inactive

Outcome logged for N#Cc1ccc(N2CCC(NCCC(O)c3ccc(F)c4ccccc34)CC2)c(Br)c1 (centres undefined) in this assay:
inactive

----------
# protocol.notes: Genotoxicity in Salmonella typhimurium TA1535 harboring pSK1002 assessed as umu gene induction at 0.25 mg/ml in presence of Sprague-Dawley rat liver S9 fraction after by SOS/umu assay relative to control
# Assay type: toxicity, organism-based
# assay.conditions: salmonella enterica subsp. enterica serovar typhimurium, read-out: FC
Please respond with y when measured fold induction at 0.25 mg/ml is strictly beneath 1, and with n in all other cases.

Report whether reported fold induction at 0.25 mg/ml is lower than 1 (strictly) for COc1ccccc1C1=CCN(CCC(O)c2ccc(F)c3ccccc23)CC1 (stereo not given)
y

Report whether reported fold induction at 0.25 mg/ml is lower than 1 (strictly) for N#Cc1ccc(C(O)CCN2CC=C(c3ccc(F)cc3)CC2)cc1 (stereo not given)
n

Report whether reported fold induction at 0.25 mg/ml is lower than 1 (strictly) for COc1ccccc1N1CCN(CCC(O)c2ccc(F)c3ccccc23)CC1 (stereo not given)
y

Report whether reported fold induction at 0.25 mg/ml is lower than 1 (strictly) for Nc1ccc(N2CCC(NCCC(O)c3ccc(F)c4ccccc34)CC2)c(C(F)(F)F)c1 (stereo not given)
y

Report whether reported fold induction at 0.25 mg/ml is lower than 1 (strictly) for COc1ccccc1C1=CCN(CCC(O)c2ccc(F)cc2)CC1 (stereo not given)
n

Report whether reported fold induction at 0.25 mg/ml is lower than 1 (strictly) for OC(CCN1CCN(c2ccccc2C(F)(F)F)CC1)c1ccc(F)cc1 (stereo not given)
n

Report whether reported fold induction at 0.25 mg/ml is lower than 1 (strictly) for OC(CCN1CCN(c2ccc(F)cc2)CC1)c1ccc(F)c2ccccc12 (stereo not given)
y

Report whether reported fold induction at 0.25 mg/ml is lower than 1 (strictly) for OC(CCN1CCN(c2ccccc2C(F)(F)F)CC1)c1ccc(F)c2ccccc12 (stereo in doubt; 55)
y

----------
# protocol.notes: Genotoxicity in Salmonella typhimurium TA1535 harboring pSK1002 assessed as survival at 0.125 mg/ml in presence of Sprague-Dawley rat liver S9 fraction after by SOS/umu assay relative to control
# Format: toxicity, organism-based
# assay.conditions: salmonella enterica subsp. enterica serovar typhimurium, read-out: Survival
endpoint.label: viability at 0.125 mg/ml (%)
Entry rule: numbers only, all in %.

// field: viability at 0.125 mg/ml; key: Oc1ccc(C(O)CCN2CC=C(c3ccc(F)cc3)CC2)cc1 (stereo unspecified) ; value = 103

// field: viability at 0.125 mg/ml; key: OC(CCN1CCN(c2ccccc2C(F)(F)F)CC1)c1ccc(F)c2ccccc12 (stereo in doubt; 55) ; value = 100

// field: viability at 0.125 mg/ml; key: O=[N+]([O-])c1ccc(N2CCN(CCC(O)c3ccc(F)c4ccccc34)CC2)cc1 (stereo unspecified) ; value = 128

// field: viability at 0.125 mg/ml; key: Nc1ccc(N2CCC(NCCC(O)c3ccc(F)c4ccccc34)CC2)c(C(F)(F)F)c1 (stereo unspecified) ; value = 107

// field: viability at 0.125 mg/ml; key: COc1ccccc1N1CCN(CCC(O)c2ccc(F)c3ccccc23)CC1 (stereo unspecified) ; value = 84.4

// field: viability at 0.125 mg/ml; key: COc1ccccc1N1CCN(CCC(O)c2ccc(F)cc2)CC1 (stereo in doubt; 66) ; value = 89.8

----------
# protocol.notes: Selectivity index, ratio of CC50 for human HepG2A16 cells by MTT assay to IC50 for multidrug-resistant Plasmodium falciparum FCR-3
# Format: toxicity
endpoint.label: Ratio CC50/IC50
// return just the number, without any unit appended

// field: Ratio CC50/IC50; key: OC(CCN1CCN(c2ccccc2C(F)(F)F)CC1)c1ccc(F)c2ccccc12 (single isomer, unassigned; (-)) ; value = 91

// field: Ratio CC50/IC50; key: N#Cc1ccc(N2CCC(NCCC(O)c3ccc(F)c4ccccc34)CC2)c(C(F)(F)F)c1 (stereo in doubt; (-)-72) ; value = 28

// field: Ratio CC50/IC50; key: N#Cc1ccc(N2CCC(NCCC(O)c3ccc(F)c4ccccc34)CC2)c(C(F)(F)F)c1 (stereo in doubt; 72) ; value = 78

// field: Ratio CC50/IC50; key: O=[N+]([O-])c1ccc(N2CCC(NCCC(O)c3ccc(F)c4ccccc34)CC2)c(C(F)(F)F)c1 (single isomer, unassigned; (-)) ; value = 23

----------
Record form. Attribute: fold induction at 0.0005 mg/ml. Fill in for each entry.
# protocol.notes: Genotoxicity in Salmonella typhimurium TA1535 harboring pSK1002 assessed as umu gene induction at 0.0005 mg/ml in absence of Sprague-Dawley rat liver S9 fraction after by SOS/umu assay relative to control
# Format: toxicity, organism-based
# assay.conditions: salmonella enterica subsp. enterica serovar typhimurium, read-out: FC
// return just the number, without any unit appended

// field: fold induction at 0.0005 mg/ml; key: OC(CCN1CCN(C(c2ccccc2)c2ccccc2)CC1)c1ccc(Cl)cc1 (stereo not given) ; value = 0.9

// field: fold induction at 0.0005 mg/ml; key: OC(CCN1CCN(C(c2ccccc2)c2ccccc2)CC1)c1ccc(Br)cc1 (stereo not given) ; value = 0.8

// field: fold induction at 0.0005 mg/ml; key: OC(CCN1CCN(C(c2ccccc2)c2ccccc2)CC1)c1ccc(F)cc1 (stereo not given) ; value = 1

// field: fold induction at 0.0005 mg/ml; key: OC(CCN1CCN(C(c2ccccc2)c2ccccc2)CC1)c1ccc(F)c(Cl)c1 (stereo not given) ; value = 0.9

// field: fold induction at 0.0005 mg/ml; key: OC(CCN1CCN(C(c2ccccc2)c2ccccc2)CC1)c1ccc(F)c(F)c1 (stereo not given) ; value = 0.7
